molecular target: Tryptophan 2,3-dioxygenase (Homo sapiens); test: Inhibition of recombinant human TDO expressed in Escherichia coli incubated for 1 hr measured by absorbance assay
Sequence (P48775 whole entry): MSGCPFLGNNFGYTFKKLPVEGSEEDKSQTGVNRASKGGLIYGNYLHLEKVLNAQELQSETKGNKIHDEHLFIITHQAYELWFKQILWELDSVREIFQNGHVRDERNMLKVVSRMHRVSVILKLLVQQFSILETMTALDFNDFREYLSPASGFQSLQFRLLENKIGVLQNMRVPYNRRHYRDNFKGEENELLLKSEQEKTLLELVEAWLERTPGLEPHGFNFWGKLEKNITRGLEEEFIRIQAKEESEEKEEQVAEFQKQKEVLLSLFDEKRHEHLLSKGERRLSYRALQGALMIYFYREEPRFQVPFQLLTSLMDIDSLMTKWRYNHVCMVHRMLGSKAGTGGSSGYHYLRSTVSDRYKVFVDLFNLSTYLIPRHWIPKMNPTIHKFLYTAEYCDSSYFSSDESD
Under this convention, Condition met denotes IC50 strictly below 200 nM and Condition not met denotes IC50 at or above 200 nM.

Field: example entries. Status: answers known.
test_smiles=CN1CCN(C(=O)c2ccc(Cn3nnc4c3C(=O)c3ccccc3C4=O)cc2)CC1 class="Condition met"
test_smiles=CC(=O)N1CCN(C(=O)c2ccc(Cn3nnc4c3C(=O)c3ccccc3C4=O)cc2)CC1 class="Condition met"
test_smiles=O=C1c2ccccc2C(=O)c2c1nnn2Cc1cccc(C(=O)N2CCOCC2)c1 class="Condition met"

Then this molecule:
Is IC50 strictly under 200 nM for the entry CCN(CC)C(=O)c1ccc(Cn2nnc3c2C(=O)c2ccccc2C3=O)cc1 ? Condition met
